Reported binding signal is given for each of the following sequences.
# measurement-target: OsWOX13 (Oryza sativa, UniProt Q5QMM3 1-267)
# Sequence: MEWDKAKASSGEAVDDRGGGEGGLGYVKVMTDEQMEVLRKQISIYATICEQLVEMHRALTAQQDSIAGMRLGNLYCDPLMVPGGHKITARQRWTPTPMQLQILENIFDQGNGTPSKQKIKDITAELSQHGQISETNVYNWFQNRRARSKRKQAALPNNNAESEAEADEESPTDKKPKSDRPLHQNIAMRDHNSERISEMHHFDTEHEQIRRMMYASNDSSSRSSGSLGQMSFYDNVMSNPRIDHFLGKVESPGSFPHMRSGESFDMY
# protocol-notes: protein-binding microarray (RPBM); PBS, 2% BSA, 51.3 ng/ul salmon testes DNA, 50 uM zinc acetate, 200 nM TF, 25 C, 1 h; high values mean tight binding
# cond: protein: recombinant; tags: N-terminal polyhistidine and DsRed monomer fusion (pET32a); label: CyDye5-dUTP incorporated in the synthesized complementary strand; 3' TTTTT single-stranded linker to array surface; dsDNA, one strand shown
The full ranking holds about 35,000 sequences; the median of “fluorescence intensity (a.u.)” is about 10,000, and the highest 2% start at about 52,000. This is one part of a sample in which the highest values are shown more often than they occur.
quantity: binding signal

>>> reported_measurement("TTAATTGATTGATTGATTGATTAATCCGTTGTGAATCTAACGGAGTCACCTAGTGCAG")
"61500 fluorescence intensity (a.u.)"
>>> reported_measurement("CATTCATATTGATGTTAATAAATTAATATAGATATATATGCGGAGTCACCTAGTGCAG")
"3590 fluorescence intensity (a.u.)"
>>> reported_measurement("GATTTAATTTATTTTGGTAATGATTTGTGGATGATTTTGGCGGAGTCACCTAGTGCAG")
"31600 fluorescence intensity (a.u.)"
>>> reported_measurement("AATTTGAAATTTCAAACTTAATTTTAACATTGATTTTGAGCGGAGTCACCTAGTGCAG")
"6660 fluorescence intensity (a.u.)"
>>> reported_measurement("ACTTAATTATTGTTATGATTCATTCATGCATAAAGCGGTGCGGAGTCACCTAGTGCAG")
"55700 fluorescence intensity (a.u.)"
>>> reported_measurement("AGTTATTGACAGTGACTAATCTACCTAATCCGTAGATTAACGGAGTCACCTAGTGCAG")
"12500 fluorescence intensity (a.u.)"
>>> reported_measurement("TGCGTGATTGTTGGGATTATTTTATTAATTGATCCAATGGCGGAGTCACCTAGTGCAG")
"57200 fluorescence intensity (a.u.)"
>>> reported_measurement("TTAATTGATTGAATCACATCCTTCCGGATTGTTTTGATCCCGGAGTCACCTAGTGCAG")
"40800 fluorescence intensity (a.u.)"
>>> reported_measurement("CCATCACATCCGTTGGCCTAATTGATTTGTGAAGCATCAACGGAGTCACCTAGTGCAG")
"4240 fluorescence intensity (a.u.)"

* * *

# measurement-target: OsWOX13 (Oryza sativa, UniProt Q5QMM3 1-267)
# Sequence: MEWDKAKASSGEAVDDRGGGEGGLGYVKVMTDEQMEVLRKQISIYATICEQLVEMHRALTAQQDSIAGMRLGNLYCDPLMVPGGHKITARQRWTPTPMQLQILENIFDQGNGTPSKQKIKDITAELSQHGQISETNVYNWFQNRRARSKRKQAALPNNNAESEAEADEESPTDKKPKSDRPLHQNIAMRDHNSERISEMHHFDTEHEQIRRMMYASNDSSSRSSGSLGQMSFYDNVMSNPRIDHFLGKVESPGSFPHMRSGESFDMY
# protocol-notes: protein-binding microarray (RPBM); PBS, 2% BSA, 51.3 ng/ul salmon testes DNA, 50 uM zinc acetate, 200 nM TF, 25 C, 1 h; high values mean tight binding
# cond: protein: recombinant; tags: N-terminal polyhistidine and DsRed monomer fusion (pET32a); label: CyDye5-dUTP incorporated in the synthesized complementary strand; 3' TTTTT single-stranded linker to array surface; dsDNA, one strand shown
The full ranking holds about 35,000 sequences; the median of “fluorescence intensity (a.u.)” is about 10,000, and the highest 2% start at about 52,000. The full list was thinned out, with the highest values kept by preference.
quantity: binding signal

>>> reported_measurement("TGATTAAATATAACTAAACTGTCAACGACATAATGCATTACGGAGTCACCTAGTGCAG")
"3470 fluorescence intensity (a.u.)"
>>> reported_measurement("CAATGACTGATTACTGTGTTGATAGAATTTCATATACATTCGGAGTCACCTAGTGCAG")
"34300 fluorescence intensity (a.u.)"
>>> reported_measurement("TTTTAAACTAATACTTAATTAATCATATATTAATTAGGTACGGAGTCACCTAGTGCAG")
"19200 fluorescence intensity (a.u.)"
>>> reported_measurement("GAATAATTACCGAAAAGGCAATTAATTAGTGACAGGGAGTCGGAGTCACCTAGTGCAG")
"26200 fluorescence intensity (a.u.)"
>>> reported_measurement("TTTTATAATTCGATGACAAATTGAGAGACCTTGGGTGTACCGGAGTCACCTAGTGCAG")
"13200 fluorescence intensity (a.u.)"
>>> reported_measurement("TAAACTTAATTTTAAAATCATAATTCAGAAATGTGGTGAACGGAGTCACCTAGTGCAG")
"30500 fluorescence intensity (a.u.)"
>>> reported_measurement("GAGGGCAAGGCCCAGGGAAGCATATCTTGATAGTCGATATCGGAGTCACCTAGTGCAG")
"65500 fluorescence intensity (a.u.)"
>>> reported_measurement("GTTTGTTAATTATTCACTAATCTCTAGTACTATAGTTGTACGGAGTCACCTAGTGCAG")
"17100 fluorescence intensity (a.u.)"
>>> reported_measurement("CTGTGATAATCTGTCTTCCTGTGATACCAGCACTGTTTCCCGGAGTCACCTAGTGCAG")
"3340 fluorescence intensity (a.u.)"
>>> reported_measurement("TCCTTGCTAACAAATCAACCAATTTGTCCATTCCCTATGTCGGAGTCACCTAGTGCAG")
"3440 fluorescence intensity (a.u.)"
>>> reported_measurement("GATAACTGGATTCATCTGTCTCCTCAACGTGTGGTCTGTACGGAGTCACCTAGTGCAG")
"19900 fluorescence intensity (a.u.)"
>>> reported_measurement("GCTTGATTGCCACACAAATTTTGACAATACGACCCTTTACCGGAGTCACCTAGTGCAG")
"42900 fluorescence intensity (a.u.)"
>>> reported_measurement("TCGCTATAATTGACAGCGACCCTACCTTGGGCCACCGGACCGGAGTCACCTAGTGCAG")
"57100 fluorescence intensity (a.u.)"
>>> reported_measurement("CATGATAGATCAGGCAGAGAGCAGATCAGAGCAAGCATGTCGGAGTCACCTAGTGCAG")
"11800 fluorescence intensity (a.u.)"
>>> reported_measurement("GTTGTATGATTGACACTAGATCGAGAAAAGGTGCGACAAACGGAGTCACCTAGTGCAG")
"23500 fluorescence intensity (a.u.)"
>>> reported_measurement("TAAATTGTACATGATATATGTCAAGTGTCAACGTCTGATTCGGAGTCACCTAGTGCAG")
"5030 fluorescence intensity (a.u.)"
>>> reported_measurement("CAAGATAATTACAAGTTTATAAAACAAACTACTACAGGGACGGAGTCACCTAGTGCAG")
"27200 fluorescence intensity (a.u.)"
>>> reported_measurement("AAACATTAATTAATACCATAATAGTTAGGTGACAATTGACCGGAGTCACCTAGTGCAG")
"27100 fluorescence intensity (a.u.)"
>>> reported_measurement("TGTTTTCCTAAGTGATTGGTGGGAAACCTCGTAGGATAAGCGGAGTCACCTAGTGCAG")
"9180 fluorescence intensity (a.u.)"

* * *

# measurement-target: OsWOX13 (Oryza sativa, UniProt Q5QMM3 1-267)
# Sequence: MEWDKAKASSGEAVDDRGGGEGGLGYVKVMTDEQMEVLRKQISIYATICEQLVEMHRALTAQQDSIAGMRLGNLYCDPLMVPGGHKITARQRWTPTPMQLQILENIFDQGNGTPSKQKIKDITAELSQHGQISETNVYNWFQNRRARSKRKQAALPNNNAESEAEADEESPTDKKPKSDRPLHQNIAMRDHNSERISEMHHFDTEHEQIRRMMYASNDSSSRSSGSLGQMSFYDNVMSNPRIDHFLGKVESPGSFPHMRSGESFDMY
# protocol-notes: protein-binding microarray (RPBM); PBS, 2% BSA, 51.3 ng/ul salmon testes DNA, 50 uM zinc acetate, 200 nM TF, 25 C, 1 h; high values mean tight binding
# cond: protein: recombinant; tags: N-terminal polyhistidine and DsRed monomer fusion (pET32a); label: CyDye5-dUTP incorporated in the synthesized complementary strand; 3' TTTTT single-stranded linker to array surface; dsDNA, one strand shown
Whole data set: some 35,000 sequences, median “fluorescence intensity (a.u.)” near 10,000, cut for the highest 2% near 52,000. For the sample, the highest values were picked, then their nearest neighbours and some sequences at random.
binding signal: recorded values
quantity: binding signal

>>> reported_measurement("CATAGGATCAATTTAATATATTGACATGCCATTAGGCCATCGGAGTCACCTAGTGCAG")
"10600 fluorescence intensity (a.u.)"
>>> reported_measurement("TGCTAGTTAAATTGGGATAAAATAATGGGCCCATTTATTTCGGAGTCACCTAGTGCAG")
"4520 fluorescence intensity (a.u.)"
>>> reported_measurement("TCTTGATTGAAACAATCTTTTGATCCCATAATCTTGCCCGCGGAGTCACCTAGTGCAG")
"63700 fluorescence intensity (a.u.)"
>>> reported_measurement("ATAAAATGTAAATTATGCTTAAAATGCTTTTAGTGATAAACGGAGTCACCTAGTGCAG")
"4750 fluorescence intensity (a.u.)"
>>> reported_measurement("ATGATTTACTATTAATCTAGTCTATTGCTGAGATATACATCGGAGTCACCTAGTGCAG")
"11000 fluorescence intensity (a.u.)"
>>> reported_measurement("TTAATTGATTTGGAAATCCTCTAGTTATCTGGATTAGTTTCGGAGTCACCTAGTGCAG")
"37300 fluorescence intensity (a.u.)"
>>> reported_measurement("ATGTGCTAATGATGGATTAATTACGCTTAATAAATTCGTCCGGAGTCACCTAGTGCAG")
"28000 fluorescence intensity (a.u.)"
>>> reported_measurement("TGATTTAATTAATTAATTAATGGCCTTGTTATTGGATGCTCGGAGTCACCTAGTGCAG")
"47100 fluorescence intensity (a.u.)"
>>> reported_measurement("ATGTATTTGCTATTAAATTAATTATAGATGATTTAGAGCTCGGAGTCACCTAGTGCAG")
"16300 fluorescence intensity (a.u.)"
>>> reported_measurement("CCTGTTGATTGGATATCTGGAACCTGAAATCCTGAATACGCGGAGTCACCTAGTGCAG")
"55800 fluorescence intensity (a.u.)"
>>> reported_measurement("AATTAATCATGCAATAAAACAAATTTCGTTTTGCGTGCTACGGAGTCACCTAGTGCAG")
"6310 fluorescence intensity (a.u.)"
>>> reported_measurement("TACTCCTGTTGATAGGTATATTGATCTGAATCATCTGGTACGGAGTCACCTAGTGCAG")
"3790 fluorescence intensity (a.u.)"
>>> reported_measurement("AAACCTAATTAATCATGCGCAAATGGCTTTCTTGTTTTGCCGGAGTCACCTAGTGCAG")
"22900 fluorescence intensity (a.u.)"
>>> reported_measurement("GGATGAAATTAGCCCATCAGCAATTACGTGTAGGCCGTAGCGGAGTCACCTAGTGCAG")
"3690 fluorescence intensity (a.u.)"
>>> reported_measurement("TTGCTAATGACGGATTAATTATGCTTAATAAATTCATCTCCGGAGTCACCTAGTGCAG")
"20600 fluorescence intensity (a.u.)"
>>> reported_measurement("TTTCTTTTGAAATTGATTACAATCTACATAAGGAGAGTCGCGGAGTCACCTAGTGCAG")
"16500 fluorescence intensity (a.u.)"
>>> reported_measurement("AACTAAACATAATCTTTGAAAAGTTTGATTTTGAACACGGCGGAGTCACCTAGTGCAG")
"6770 fluorescence intensity (a.u.)"
>>> reported_measurement("CACATACTATACTACATTAATTATATTCTGATGAAATCCGCGGAGTCACCTAGTGCAG")
"4130 fluorescence intensity (a.u.)"
>>> reported_measurement("TGCTAATGATGGATTAATTAAGCTTAATAAATTCATCTCGCGGAGTCACCTAGTGCAG")
"53700 fluorescence intensity (a.u.)"
